// data source = paper PMC10397247

The reader will find reported interaction score values listed item by item below.
# Measured On: T1, 4H_APH
# T1 chain: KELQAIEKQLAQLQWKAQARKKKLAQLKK
# Method Description: two-hybrid library CCmax;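 also: natural log of median RNA to DNA barcode read ratio; higher means stronger binding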
# Condition Info: mean of both orientations

- Binder: "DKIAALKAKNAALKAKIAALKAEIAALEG [4H3049-AA]"
  interaction score: -1.8
- Binder: "DKNAALEAEIAALEAEIAALEAEIAALEG [4H3073-AA]"
  interaction score: 0.197
- Binder: "DEIAALEAEIAALEAKIAALKAENAALEG [4H43-AA]"
  interaction score: -0.887
- Binder: "DKNAALKAKNAALKAEIAALEAKIAALKG [4H4038-AA]"
  interaction score: -2.34
- Binder: "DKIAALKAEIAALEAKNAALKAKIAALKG [4H2622-AA]"
  interaction score: -1.87
- Binder: "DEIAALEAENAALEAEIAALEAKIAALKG [4H134-AA]"
  interaction score: 1.96
- Binder: "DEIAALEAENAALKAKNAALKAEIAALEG [4H249-AA]"
  interaction score: -1.97
- Binder: "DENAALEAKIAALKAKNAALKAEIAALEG [4H1401-AA]"
  interaction score: -1.86
- Binder: "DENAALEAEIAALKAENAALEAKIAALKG [4H1110-AA]"
  interaction score: -1.53
- Binder: "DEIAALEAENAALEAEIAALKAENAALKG [4H140-AA]"
  interaction score: -2.79
- Binder: "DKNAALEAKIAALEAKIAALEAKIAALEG [4H3365-AA]"
  interaction score: -1.21
- Binder: "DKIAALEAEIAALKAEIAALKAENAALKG [4H2124-AA]"
  interaction score: -1.67
- Binder: "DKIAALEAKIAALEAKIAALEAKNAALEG [4H2343-AA]"
  interaction score: -1.88
- Binder: "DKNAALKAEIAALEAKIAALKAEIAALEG [4H3625-AA]"
  interaction score: -1.59
